Here, each record is paired with measured pIC50 data.
molecular target: Nuclear receptor subfamily 4immunitygroup A member 1 (Homo sapiens); assay: Inverse agonist activity at human Nur77 LBD transiently transfected in HEK293T cells incubated for 16 hrs by Gal4-hybrid reporter gene based Dual-glo luciferase assay
Sequence (P22736 whole entry, the tested form may be a part): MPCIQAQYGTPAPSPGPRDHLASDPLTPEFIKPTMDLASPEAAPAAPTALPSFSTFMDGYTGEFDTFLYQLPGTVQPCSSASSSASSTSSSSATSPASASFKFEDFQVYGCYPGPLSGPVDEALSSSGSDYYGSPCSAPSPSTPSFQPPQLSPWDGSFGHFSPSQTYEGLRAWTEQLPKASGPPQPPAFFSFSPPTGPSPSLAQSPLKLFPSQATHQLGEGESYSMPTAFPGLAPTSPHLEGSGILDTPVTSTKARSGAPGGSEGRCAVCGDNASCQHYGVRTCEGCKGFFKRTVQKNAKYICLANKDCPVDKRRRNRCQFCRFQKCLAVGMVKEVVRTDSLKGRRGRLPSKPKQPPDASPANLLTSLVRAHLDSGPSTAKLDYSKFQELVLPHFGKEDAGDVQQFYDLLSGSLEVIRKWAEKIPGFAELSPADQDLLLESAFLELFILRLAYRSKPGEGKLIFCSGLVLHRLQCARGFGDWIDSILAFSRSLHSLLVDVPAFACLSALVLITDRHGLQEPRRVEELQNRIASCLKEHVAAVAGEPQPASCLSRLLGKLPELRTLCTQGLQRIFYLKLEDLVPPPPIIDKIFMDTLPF
pIC50: −log10 of the molar value.

{"columns": ["STRUCTURE_STRING", "ASSAY_TARGET", "pIC50"],
 "data": [
  ["N#Cc1c(F)c(F)cc(C(=O)O)c1F", "Nuclear receptor subfamily 4immunitygroup A member 1 (Homo sapiens)", "< 4.00"],
  ["O=C(O)C(c1ccccc1)(c1ccccc1)c1ccccc1", "Nuclear receptor subfamily 4immunitygroup A member 1 (Homo sapiens)", "< 4.00"],
  ["O=C(O)c1ccccc1CCc1ccccc1", "Nuclear receptor subfamily 4immunitygroup A member 1 (Homo sapiens)", "< 4.00"]
]}
